Below, each entry is listed alongside its reported melting point.
Use °C as the unit, but write only the number.

COC(C)(C)C(CC(=O)O)Nc1nc(-c2c[nH]c3c(F)cc(F)cc23)c(C#N)cc1F (stereo not shown): 218.8
Cn1nnc(C(=O)N[C@@H]2CCC[C@H](Nc3nc(-c4c[nH]c5c(F)cc(Cl)cc45)ncc3F)C2)n1: 259.7

INPUT: Read the entry "O=C(N[C@@H]1CCC[C@H](Nc2nc(-c3c[nH]c4c(F)cc(Cl)cc34)ncc2F)C1)c1nnn[nH]1" and write its reported melting point.
OUTPUT: 275.1

---

Measured CC50 at 3 days, listed per entry for reference.
Test: in vitro
Conditions: dog, TOX MDCK CC50

O=C(N[C@H]1CCC[C@@H](Nc2nc(-c3c[nH]c4c(F)cc(F)cc34)c(-c3nnc[nH]3)cc2F)C1)N1CCCC1 (racemic): > 25 µM
N#Cc1cc(F)c2[nH]cc(-c3ncc(F)c(N[C@H]4C5CCC(CC5)[C@@H]4C(=O)O)n3)c2c1: 0.7 µM
Cc1cc(F)c2[nH]cc(-c3ncc(F)c(NC(CC(=O)O)C(C)(C)C)n3)c2c1 (racemic): 3.5 µM
COc1ccnc(C(=O)N[C@@H]2CCC[C@H](Nc3nc(-c4c[nH]c5c(F)cc(F)cc45)c(C#N)cc3F)C2)c1: > 25 µM
Cc1ncn(C)c1C(=O)N[C@@H]1CCC[C@H](Nc2nc(-c3c[nH]c4c(F)cc(F)cc34)ncc2F)C1: > 25 µM

INPUT: Quick one: give measured CC50 at 3 days for "Cc1cccnc1C(=O)N[C@@H]1CCC[C@H](Nc2nc(-c3c[nH]c4c(F)cc(F)cc34)ncc2F)C1"
OUTPUT: > 20.7 µM

INPUT: Look up CC50 at 3 days of Cn1cnc(C(=O)N[C@@H]2CCC[C@H](Nc3nc(-c4c[nH]c5c(F)cc(F)cc45)c(C#N)cc3F)C2)c1 (racemic) [Compound 3] and report it.
OUTPUT: > 25 µM

---

Listed here: items and their measured melting point.
Response body: numeric value in °C, unit text excluded.

Examples with answers:
CC[C@@]1(C(=O)O)CCCC[C@H]1Nc1nc(-c2c[nH]c3c(F)cc(F)cc23)c(C#N)cc1F (relative stereo): 254.9
CC1(C(CC(=O)O)Nc2nc(-c3c[nH]c4c(F)cc(F)cc34)c(C#N)cc2F)CCOCC1 (centres unmarked): 151.1
Cn1cc(Br)nc1C(=O)N[C@@H]1CCC[C@H](Nc2nc(-c3c[nH]c4c(F)cc(F)cc34)ncc2F)C1: 176
Cc1ocnc1C(=O)N[C@@H]1CCC[C@H](Nc2nc(-c3c[nH]c4c(F)cc(Cl)cc34)ncc2F)C1: 253.4
Cc1cc(F)c2[nH]cc(-c3ncc(F)c(N[C@H]4CCC[C@@H](NC(=O)c5ncsc5C)C4)n3)c2c1 (racemic): 234

INPUT: Using known records, supply melting point for CC(C)(c1cccs1)C(CC(=O)O)Nc1nc(-c2c[nH]c3c(F)cc(F)cc23)c(C#N)cc1F (centres unmarked)
OUTPUT: 235.7

INPUT: Identify measured melting point corresponding to "Cc1c[nH]c(C(=O)N[C@@H]2CCC[C@H](Nc3nc(-c4c[nH]c5c(F)cc(F)cc45)ncc3F)C2)n1"
OUTPUT: 281.9

INPUT: Please supply the value of reported melting point for the item "Cc1c(C(=O)N[C@@H]2CCC[C@H](Nc3nc(-c4c[nH]c5c(F)cc(F)cc45)ncc3F)C2)nnn1C"
OUTPUT: 202

INPUT: Query melting point for "N#Cc1cc(F)c(N[C@@H]2CCC[C@H](NC(=O)[C@@H](O)c3ccccc3)C2)nc1-c1c[nH]c2c(F)cc(F)cc12"
OUTPUT: 255

---

Assay: in vitro
Settings: dog, TOX MDCK CC50
The following compounds are listed with their measured CC50 at 3 days values.
Answer format: numeric, µM implied, no suffix.

INPUT: Provide one value: measured CC50 at 3 days of "CC[C@@]1(C(=O)O)CCCC[C@H]1Nc1nc(-c2c[nH]c3c(F)cc(F)cc23)ncc1F"
OUTPUT: 15.2

INPUT: Tell me CC50 at 3 days reported for "O=C(N[C@@H]1CCC[C@H](Nc2nc(-c3c[nH]c4c(F)cc(Cl)cc34)ncc2F)C1)c1cnn[nH]1"
OUTPUT: 3.1

---

Measured melting point, listed per entry for reference.
Provide the reading as a plain figure in °C.

Cc1cccnc1C(=O)N[C@@H]1CCC[C@H](Nc2nc(-c3c[nH]c4c(F)cc(Cl)cc34)ncc2F)C1: 226.5
CCn1nccc1C(=O)N[C@@H]1CCC[C@H](Nc2nc(-c3c[nH]c4c(F)cc(F)cc34)ncc2F)C1: 266.8
Cc1cc(C(=O)N[C@@H]2CCC[C@H](Nc3nc(-c4c[nH]c5c(F)cc(Cl)cc45)ncc3F)C2)n[nH]1: 189.2
Nc1nccc(C(=O)N[C@@H]2CCC[C@H](Nc3nc(-c4c[nH]c5c(F)cc(F)cc45)ncc3F)C2)n1: 235
CC(=O)NCc1ccc(N[C@H]2CCC[C@@H](NC(=O)N3CCCC3)C2)nc1-c1c[nH]c2c(F)cc(F)cc12 (racemic): 235.8
O=C(N[C@@H]1CCC[C@H](Nc2nc(-c3c[nH]c4c(F)cc(Cl)cc34)ncc2F)C1)c1cccc(O)n1: 253.4
O=C(N[C@@H]1CCC[C@H](Nc2nc(-c3c[nH]c4c(F)cc(F)cc34)ncc2F)C1)c1ccc2ncccc2n1: 84.6
N#Cc1cc(F)c(N[C@@H]2CCC[C@@H](NC(=O)c3ccccn3)C2)nc1-c1c[nH]c2c(F)cc(F)cc12: 257

INPUT: Report melting point for "O=C(N[C@@H]1CCC[C@H](Nc2nc(-c3c[nH]c4c(F)cc(F)cc34)ncc2F)C1)c1cnccn1"
OUTPUT: 269

INPUT: For Cc1cc(C(=O)N[C@@H]2CCC[C@H](Nc3nc(-c4c[nH]c5c(F)cc(Cl)cc45)ncc3F)C2)on1 (racemic) [Compound 29] , write its melting point.
OUTPUT: 246.7

INPUT: Fill in melting point for record "Cc1ccnc(C(=O)N[C@@H]2CCC[C@H](Nc3nc(-c4c[nH]c5c(F)cc(F)cc45)ncc3F)C2)c1"
OUTPUT: 255

---

Attribute: CC50 at 3 days
Assay: in vitro
Settings: dog, TOX MDCK CC50
API: value field is a number in µM; no unit string.

Worked cases, answers included:
O=C(N[C@@H]1CCC[C@H](Nc2nc(-c3c[nH]c4c(F)cc(Cl)cc34)ncc2F)C1)c1cnccn1 [Compound 33]: 13.8
Cc1cc(F)c2[nH]cc(-c3ncc(F)c(N[C@@H]4CCC[C@@H](NC(=O)c5ncoc5C)C4)n3)c2c1 (racemic) [Compound 194]: 11.2
Cn1cc(C(=O)N[C@@H]2CCC[C@H](Nc3nc(-c4c[nH]c5c(F)cc(F)cc45)ncc3F)C2)nn1 [Compound 130]: 3.2

INPUT: Answer with reported CC50 at 3 days of Cc1cc(C(=O)N[C@@H]2CCC[C@H](Nc3nc(-c4c[nH]c5c(F)cc(Cl)cc45)ncc3F)C2)nn1C [Compound 36]
OUTPUT: 5.5

---

Sorting guide: entries reporting melting point beneath 200 °C go in the Satisfied pile, the rest go in the Not satisfied pile.

As a guide, the following entries are already answered.
Cc1cc(C(=O)N[C@@H]2CCC[C@H](Nc3nc(-c4c[nH]c5c(F)cc(F)cc45)ncc3F)C2)nn1C [Compound 129]: Satisfied
CC1(C(CC(N)=O)Nc2nc(-c3c[nH]c4c(F)cc(F)cc34)c(C#N)cc2F)CCCC1 (centres unmarked) [Compound 246]: Not satisfied
Cc1cccnc1C(=O)N[C@@H]1CCC[C@H](Nc2nc(-c3c[nH]c4c(F)cc(F)cc34)ncc2F)C1 [Compound 101]: Not satisfied
CCn1ccnc1C(=O)N[C@@H]1CCC[C@H](Nc2nc(-c3c[nH]c4c(F)cc(Cl)cc34)ncc2F)C1 [Compound 72]: Satisfied
Cc1cnc(C(=O)N[C@@H]2CCC[C@H](Nc3nc(-c4c[nH]c5c(F)cc(Cl)cc45)ncc3F)C2)cn1 (relative stereo) [Compound 11]: Not satisfied
Cc1cc(C(=O)N[C@@H]2CCC[C@H](Nc3nc(-c4c[nH]c5c(F)cc(Cl)cc45)ncc3F)C2)nn1C [Compound 36]: Satisfied

INPUT: Strictly below 200 °C: is that where melting point of COc1cccc(C(=O)N[C@@H]2CCC[C@H](Nc3nc(-c4c[nH]c5c(F)cc(F)cc45)ncc3F)C2)n1 [Compound 98] sits?
OUTPUT: Not satisfied

INPUT: Check if melting point falls below 200 °C for Cn1cc(C(=O)N[C@@H]2CCC[C@H](Nc3nc(-c4c[nH]c5c(F)cc(F)cc45)ncc3F)C2)cn1 [Compound 120] .
OUTPUT: Not satisfied

INPUT: Lab note: melting point threshold 200 °C. Does this molecule come in strictly under it? Cc1cc(C(=O)N[C@@H]2CCC[C@H](Nc3nc(-c4c[nH]c5c(F)cc(F)cc45)ncc3F)C2)n[nH]1 [Compound 112]
OUTPUT: Not satisfied

INPUT: Confirm or reject: melting point of O=C(N[C@@H]1CCC[C@H](Nc2nc(-c3c[nH]c4c(F)cc(F)cc34)ncc2F)C1)c1cscn1 [Compound 154] lies strictly below 200 °C
OUTPUT: Not satisfied
